- assay procedure: Human SAD PK
- Type: in vivo
- cond: human, plasma, oral, 200 mg, cohort 3, 200 mg, mean ± SD, n = 6, read-out: AUC0-10 h
endpoint name: AUC(0-t) (ng·h/mL)
Report the value in ng·h/mL with no unit label.

Query: For the compound shown here, O=C(OCCOCCOCCOC(=O)N(Cc1cccs1)Cc1cccs1)N(Cc1cccs1)Cc1cccs1 [Form 7HP349] , give the reported AUC(0-t).
Reply: 571

* * *

- assay procedure: Solubility of 7HP349
- Assay type: physicochemical
- cond: oil or lipid; vegetable oils such as corn, soybean, canola oils typically containing >C16 fatty acids; read-out: Solubility
endpoint name: Solubility

Query: Please report the recorded Solubility for O=C(OCCOCCOCCOC(=O)N(Cc1cccs1)Cc1cccs1)N(Cc1cccs1)Cc1cccs1 [Form 7HP349] .
Reply: ≤ 50 mg/mL

Source: patent US20230372253A1
